Entry source: PubChem BioAssay AID1963845

# System: 429239-143-T-J1-PDC complex spheroid viability;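 note: luminescence signal used as surrogate measure of viable cells; spheroids exposed to compounds for seven days before readout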
# protocol: Anticancer human tumor 429239-143-T-J1-PDC patient-derived small cell lung carcinoma cell line growth inhibition [POLQ]
# recorded conditions: curve of first compound; second compound 0.0316 µM
Exercise: state measured pIC50 for each of the compounds provided.
Answers are plain numbers, as −log10 of the molar value.

Please give pIC50 for each item listed below.
1. C=CCn1c(=O)c2cnc(Nc3ccc(N4CCN(C)CC4)cc3)nc2n1-c1cccc(C(C)(C)O)n1 + COC1C(OC(N)=O)C(O)C(Oc2ccc3c(O)c(NC(=O)c4ccc(O)c(CC=C(C)C)c4)c(=O)oc3c2C)OC1(C)C
2. CC(=O)O[C@H]1C(=O)[C@@]2(C)[C@H]([C@H](OC(=O)c3ccccc3)[C@]3(O)C[C@H](OC(=O)[C@H](O)[C@@H](NC(=O)c4ccccc4)c4ccccc4)C(C)=C1C3(C)C)[C@]1(OC(C)=O)CO[C@@H]1C[C@@H]2O + Nc1ccc(C#CCN(C(=O)Cc2ncc(C(F)(F)F)cc2C(F)(F)F)c2ccc(F)cc2)nn1
3. CC1COCCN1c1cc(C2(S(C)(=N)=O)CC2)nc(-c2ccnc3[nH]ccc23)n1 (centres undefined) + COC1C(OC(N)=O)C(O)C(Oc2ccc3c(O)c(NC(=O)c4ccc(O)c(CC=C(C)C)c4)c(=O)oc3c2C)OC1(C)C

1: 6.24; 2: 7.84; 3: 5.64
